# Measured On: Protein kinase C alpha type (Homo sapiens)
# Measurement Description: Displacement of [3H-20] phorbol 12,13-dibutyrate(PDBU) from recombinant Protein kinase C alpha
pKi: −log10 of the molar value.
Measurement Type: pKi

Here are 4 compounds together with their reported answers.
- Compound: "CCCCCCCCCCCCCC(=O)O[C@@H](CO)[C@H]1CCC(=O)O1"
  pKi: 4.55
- Compound: "CCCCCCCCCCCCCCOC(=O)C[C@]1(CCO)COC(=O)C1"
  pKi: 4.98
- Compound: "CCCCCCCCCCCCCCOC(=O)C[C@@]1(CO)COC(=O)C1"
  pKi: 4.77
- Compound: "CCCCCCCCCCCCCCOC(=O)C[C@@]1(CCO)COC(=O)C1"
  pKi: 4.74

(A) CCCCCCCCCCCCCCOC(=O)CC1(CCO)COC(=O)C1 (single isomer, unassigned)
(B) CCCCCCCCCCCCCC(=O)O[C@@H](CO)[C@@H]1CCC(=O)O1
Input line: Quick check, higher pKi between A and B ? State your choice using its label.
Output line: B
(B: 5.97, A: 4.62)
